# Measurement Protocol: Phase 1a multiple ascending dose study (oral solution): plasma pharmacokinetics
# Format: in vivo, human
# Condition Set: human, plasma, oral, 120 mg, Cohort 4, 120 mg; Day 1; Hour 12; read-out: Compound 1 concentration, Conc (SD)
Property Label: concentration at 12 h

Which concentration at 12 h is reported for this compound? CC(C)(C)OC(=O)N1CCN(Cc2ccn(Cc3ccc(Cl)cc3)c(=O)c2O)CC1
0 ng/mL

----------
# Measurement Protocol: Phase 1a multiple ascending dose study (oral solution): plasma pharmacokinetics
# Assay type: in vivo, human
# Condition Set: human, plasma, oral, 120 mg, Cohort 4, 120 mg once daily; Day 7; Hour 12; read-out: Compound 1 concentration, Conc (SD)
Property Label: concentration at 12 h (ng/mL)
I only need the number, in ng/mL, no unit after it.

Please look up its concentration at 12 h: CC(C)(C)OC(=O)N1CCN(Cc2ccn(Cc3ccc(Cl)cc3)c(=O)c2O)CC1
2.59

// data source = patent US20220175766A1
